- System: COLO 205 colon
- Assay Summary: NCI-60 one-dose screen, 48 h
- Test Parameters: 10 µM unless noted
About 83,000 compounds went through this panel and 20% of them were active in at least one assay; those are over-represented in the sample as a whole. The source made the active and inactive calls. The calls were made as follows: active = growth percent below 10; inactive = the rest.
Outcomes: active, inactive

[[record]]
compound = "COc1cc2cc(NCc3ccc(Cl)cc3)nc(C)c2cc1OC"
answer_label = "inactive"

[[record]]
compound = "Nc1c2c(c(O)c3c1=C(CO)C=N3)=NCCS2=O (stereo not given)"
answer_label = "active"

[[record]]
compound = "CO/C=C/C(=O)c1cc2cnc3c(=N)cc(NC(=O)C(C)C)c([nH]1)c23"
answer_label = "active"

[[record]]
compound = "Clc1nc(Cl)c2ncn(C/C=C\\Cn3cnc4c(Cl)nc(Cl)nc43)c2n1"
answer_label = "active"

[[record]]
compound = "COC(=O)[C@@H](C)CNS(=O)(=O)N(c1cc(C(F)(F)F)cc(C(F)(F)F)c1)C1CCN(Cc2ccc(F)cc2)CC1"
answer_label = "active"

[[record]]
compound = "CC(C)n1c(NCCc2ccc(O)c(O)c2)nc2c1c(=O)n(C)c(=O)n2C"
answer_label = "inactive"

[[record]]
compound = "Cc1c(N)ccc(-c2ccc(N)c(C)c2S(=O)(=O)O)c1S(=O)(=O)O"
answer_label = "inactive"

[[record]]
compound = "OCCNC(=S)Nc1ccc(-c2nc(N3C[C@H]4CC[C@@H](C3)O4)c3cccn3n2)cc1"
answer_label = "active"

[[record]]
compound = "NC(=O)c1n[nH]n2c1nc(=O)c1c3c(sc12)CCCC3"
answer_label = "inactive"

[[record]]
compound = "Cn1cc(-c2cnn3c(N)c(Br)c([C@@H]4CCCNC4)nc23)cn1"
answer_label = "inactive"

[[record]]
compound = "CNC(=O)c1ccccc1Nc1nc(Nc2ccc3c(c2OC)CCC[C@H](N2CCN(CCO)CC2)C3)ncc1Cl"
answer_label = "active"

[[record]]
compound = "CC(=Nc1ccccc1)C1=C(O)C(Cc2ccccc2)NC1=O (stereo not given)"
answer_label = "active"

[[record]]
compound = "O=C1C=CC2(NN=C(c3ccccc3)N2c2cccc(Cl)c2)C(Cl)=C1 (stereo not given)"
answer_label = "inactive"

[[record]]
compound = "COc1cc2c(Oc3ccc(NC(=O)C4(C(=O)Nc5ccc(F)cc5)CC4)cc3F)ccnc2cc1OCCCN1CCOCC1"
answer_label = "active"

[[record]]
compound = "CO[C@H]1C[C@@H]2CC[C@@H](C)[C@@](O)(O2)C(=O)C(=O)N2CCCC[C@H]2C(=O)O[C@H]([C@H](C)C[C@@H]2CC[C@@H](OCCO)[C@H](OC)C2)CC(=O)[C@H](C)/C=C(\\C)[C@@H](O)[C@H](OC)C(=O)[C@H](C)C[C@H](C)\\C=C/C=C/C=C/1C"
answer_label = "inactive"

[[record]]
compound = "COc1ccc(C(=O)N2c3ccccc3Sc3ccccc32)c(F)c1"
answer_label = "active"

[[record]]
compound = "CCN(CCO)CCCOc1ccc2c(Nc3cc(CC(=O)Nc4cccc(F)c4)[nH]n3)ncnc2c1"
answer_label = "active"

[[record]]
compound = "CNC(=O)c1cc(Oc2cccc3nc(Nc4ccc(Oc5ccccc5)cc4)ccc23)ccn1"
answer_label = "inactive"

[[record]]
compound = "Cn1cnc2c(F)c(Nc3ccc(Br)cc3Cl)c(C(=O)NOCCO)cc21"
answer_label = "active"

[[record]]
compound = "CO[C@H]1C[C@@H]2CC[C@@H](C)[C@@](O)(O2)C(=O)C(=O)N2CCCC[C@H]2C(=O)O[C@H]([C@H](C)C[C@@H]2CC[C@@H](O)[C@H](OC)C2)CC(=O)[C@H](C)/C=C(\\C)[C@@H](O)[C@@H](OC)C(=O)[C@H](C)C[C@H](C)\\C=C/C=C/C=C/1C"
answer_label = "inactive"

[[record]]
compound = "O=C(O)c1ccc2c(c1)nc(Nc1cccc(Cl)c1)c1ccncc12"
answer_label = "active"

[[record]]
compound = "CC1(COc2ccc3c(c2)ncn3-c2ccc3cccc(N4CCC(N)CC4)c3n2)COC1"
answer_label = "active"

[[record]]
compound = "Cc1cc(C(=O)Nc2cc(Oc3ccc4nc(NC(=O)C5CC5)cn4n3)ccc2C)n(C)n1"
answer_label = "active"

[[record]]
compound = "COC(=O)[C@H](C)NC(=O)[C@@H](OC)[C@@H]1Cc2cc3cc(OC4CC(OC5CC(O)C(O)C(C)O5)C(O)C(C)O4)c(C)c(O)c3c(O)c2C(=O)[C@H]1OC1CC(OC2CC(OC3CC(C)(O)C(O)C(C)O3)C(O)C(C)O2)C(O)C(C)O1 (stereo not given in full)"
answer_label = "active"

[[record]]
compound = "NC(=O)c1c(OCc2c(F)cc(Br)cc2F)nsc1NC(=O)NCCCCN1CCCC1"
answer_label = "active"


---

- Tested on: PC-3 prostate
- Assay Summary: NCI-60 one-dose screen, 48 h (100 = growth as untreated, 0 = no growth, -100 = all killed)
- Test Parameters: 10 µM unless noted
This is part of a sample that, as a whole, favours compounds with a hit. Of some 83,000 tested, about 20% had one in any assay.
Measure Name: growth (%)

[[record]]
smiles_str = "Cc1ccc(F)c(NC(=O)Nc2ccc(-c3cccc4[nH]nc(N)c34)cc2)c1"
measure_name = "growth"
measurement_units = "%"
numeric_readout = 30.8

[[record]]
smiles_str = "C[C@H]1Oc2cc(cnc2N)-c2c(nn(C)c2C#N)CN(C)C(=O)c2ccc(F)cc21"
measure_name = "growth"
measurement_units = "%"
numeric_readout = 81.7

[[record]]
smiles_str = "CN1CCN(c2nc(C3=C(c4c[nH]c5ccccc45)C(=O)NC3=O)c3ccccc3n2)CC1"
measure_name = "growth"
measurement_units = "%"
numeric_readout = 108

[[record]]
smiles_str = "COc1cc(NCCN(CC(C)C)CC(C)C)c2ncc(C)cc2c1"
measure_name = "growth"
measurement_units = "%"
numeric_readout = 47.8


---

- System: HT29 colon
- Assay Summary: NCI-60 one-dose screen, 48 h
- Test Parameters: 10 µM unless noted
This is part of a sample that, as a whole, favours compounds with a hit. Of some 83,000 tested, about 20% had one in any assay. Calls of active or inactive are those of the source. How the source made its calls: active means growth percent below 10; inactive means the rest.
Outcomes: active, inactive

[[record]]
compound = "COc1ccc(OC)c(NC2=C(SCCc3ccccc3)C(=O)c3ccccc3C2=O)c1"
answer_label = "inactive"

[[record]]
compound = "Cc1cccc(NC(=O)[C@@H]2c3ccccc3C(=O)N(c3ccc(Cl)cc3)[C@H]2c2ccc(Cl)cc2)n1"
answer_label = "inactive"

[[record]]
compound = "COc1cc2ncnc(Nc3cccc(Cl)c3F)c2cc1OC(=O)N1CCN(C)C[C@H]1C"
answer_label = "inactive"

[[record]]
compound = "Cc1cc2c(F)c(Oc3ncnn4cc(OC[C@@H](C)OC(=O)[C@H](C)N)c(C)c34)ccc2[nH]1"
answer_label = "active"

[[record]]
compound = "CC(C)[C@@H](C)/C=C/[C@@H](C)[C@H]1CCC2=C3C=CC4=CC(=O)CC[C@]4(C)[C@H]3CC[C@@]21C"
answer_label = "inactive"

[[record]]
compound = "COc1cc2ncnc3c2cc1OCCCCCN(C)Cc1ccc(Br)cc1N3"
answer_label = "inactive"

[[record]]
compound = "COc1ccc(-c2cc3c(C)nc(N)nc3n(C3CCC(OCCO)CC3)c2=O)cn1 (centres undefined)"
answer_label = "active"

[[record]]
compound = "O=C1CC(c2cccc(F)c2)c2c(n[nH]c2-c2ccc(Cl)cc2)N1 (centres undefined)"
answer_label = "inactive"

[[record]]
compound = "N#Cc1cc2[nH]c3ccc(OC(F)(F)F)cc3c2oc1=O"
answer_label = "inactive"

[[record]]
compound = "CCOc1cccc(/C=N/NC(=O)c2ccccc2Nc2ccnc(C(F)(F)F)c2)c1O"
answer_label = "inactive"

[[record]]
compound = "CC(=O)NCC(=O)N1[C@@H]2CC[C@H]1c1ccc(Nc3ncc(C(F)(F)F)c(NC4CCC4)n3)cc12"
answer_label = "inactive"

[[record]]
compound = "COc1ccc(Cc2cc(-c3ccccc3C)n[nH]c2=O)cc1"
answer_label = "inactive"

[[record]]
compound = "Nc1nc(N)c2cc(CNc3ccc(C(=O)NC(CC(=O)O)C(=O)O)cc3)ccc2n1 (centres undefined)"
answer_label = "inactive"

[[record]]
compound = "CCN(CC)CCOc1ccc(/C(=C(\\C)c2ccc(Cl)cc2)c2ccc(Cl)cc2)cc1"
answer_label = "active"

[[record]]
compound = "COc1cc2nc(Nc3cccc(Cl)c3)nc(N)c2cc1OC"
answer_label = "active"

[[record]]
compound = "O=c1[nH]ccc2c(S(=O)(=O)N3CCCNCC3)cccc12"
answer_label = "inactive"

[[record]]
compound = "COc1ccc2c(CCc3ccc(Cl)cc3)c3[n+](cc2c1OC)CCc1cc2c(cc1-3)OCO2"
answer_label = "inactive"

[[record]]
compound = "CCOC(=O)C1=C(C)NC(=O)NC1c1cc(=O)oc2ccc(C)cc12 (centres undefined)"
answer_label = "inactive"

[[record]]
compound = "O=C(NC1CCNCC1)c1[nH]ncc1NC(=O)c1c(Cl)cccc1Cl"
answer_label = "active"

[[record]]
compound = "COC(=O)CNC(=O)[C@@H](OC)[C@@H]1Cc2cc3cc(OC4CC(OC5CC(O)C(O)C(C)O5)C(O)C(C)O4)c(C)c(O)c3c(O)c2C(=O)[C@H]1OC1CC(OC2CC(OC3CC(C)(O)C(O)C(C)O3)C(O)C(C)O2)C(O)C(C)O1 (some centres undefined)"
answer_label = "active"

[[record]]
compound = "COCCN1CCN(Cc2ccc(-c3n[nH]c4c3C(=O)c3c(NC(=O)NN5CCOCC5)cccc3-4)cc2)CC1"
answer_label = "active"

[[record]]
compound = "CCNC(=O)Nc1nc2ccc(Oc3ccnc(C(=O)NC)c3)cc2s1"
answer_label = "inactive"

[[record]]
compound = "CCN1CCN(c2nc(C)cc(N(CCCNc3ccnc4cc(Cl)ccc34)Cc3ccc4c(c3)OCO4)n2)CC1"
answer_label = "active"

[[record]]
compound = "CC(C)(O)CC(=O)NCCn1ccc2ncnc(Nc3ccc(Oc4cccc(C(F)(F)F)c4)c(Cl)c3)c21"
answer_label = "active"

[[record]]
compound = "C=CCN1C(=O)c2cccc3c(-c4ccc5c(c4)ncn5C4CCCCC4)ccc(c23)C1=O"
answer_label = "inactive"

[[record]]
compound = "COc1cc2c(cc1OCCCCCCN1CCN(c3ncnc4ccccc34)CC1)N=CC1CCCN1C2=O (centres undefined)"
answer_label = "inactive"

[[record]]
compound = "NC1=Nc2ccccc2N(O)N1"
answer_label = "inactive"

[[record]]
compound = "CC[C@H](Nc1ncnc2nc[nH]c12)c1nc2cccc(F)c2c(=O)n1-c1ccccc1"
answer_label = "inactive"

[[record]]
compound = "C=CCCCC(=O)CCC(=O)OCC1O[C@@H](O[C@@H]2C(O)[C@@H](OC(C)=O)C(C)O[C@H]2O[C@H](CC=C)CCCCC)C(O)[C@@H](OC(=O)/C(C)=C/C)[C@@H]1OC(=O)/C=C/c1ccccc1 (some centres undefined)"
answer_label = "active"


Origin of the recorded values: PubChem BioAssay (NCI)
